Attribute: LAD conjunctiva
system: substance P induced plasma extravasation; assay: Antagonism of substance P induced plasma extravasation in guinea-pigs; assay type: in vivo; conditions: lowest active dose; female guinea-pigs; compound 1 hour prior to substance P; blue colouring of conjunctiva 10 minutes after challenge
property_measured: LAD conjunctiva

{"molecule": "Cc1cccc(C)c1NC(=O)CN1CCN([C@@H]2CCN(C(=O)c3cc(C(F)(F)F)cc(C(F)(F)F)c3)[C@@H](Cc3ccc(Cl)c(Cl)c3)C2)CC1 (racemic)", "property_measured": "LAD conjunctiva", "reported_measurement": "2.50 mg/kg"}
{"molecule": "Cc1cccc(C)c1NC(=O)CN1CCN(C2CCN(C(=O)c3cc(C(F)(F)F)cc(C(F)(F)F)c3)C(Cc3ccc(Cl)c(Cl)c3)C2)CC1 (racemic)", "property_measured": "LAD conjunctiva", "reported_measurement": "2.50 mg/kg"}
{"molecule": "Cc1cc(C)cc(COC(CN2CCN(C3CCN(C(=O)c4cc(C(F)(F)F)cc(C(F)(F)F)c4)C(Cc4ccccc4)C3)CC2)c2ccccc2)c1 (racemic)", "property_measured": "LAD conjunctiva", "reported_measurement": "10.0 mg/kg"}
{"molecule": "O=C(c1cc(C(F)(F)F)cc(C(F)(F)F)c1)N1CC[C@@H](N2CCN(Cc3ccccc3)CC2)C[C@@H]1Cc1ccccc1 (racemic)", "property_measured": "LAD conjunctiva", "reported_measurement": "10.0 mg/kg"}
{"molecule": "Cc1cccc(C)c1NC(=O)C(c1ccccc1)N1CCN(C2CCN(C(=O)c3cc(C(F)(F)F)cc(C(F)(F)F)c3)C(Cc3ccccc3)C2)CC1 (racemic)", "property_measured": "LAD conjunctiva", "reported_measurement": "2.50 mg/kg"}
{"molecule": "CCOCCn1c(CN2CCN(C3CCN(C(=O)c4cc(C(F)(F)F)cc(C(F)(F)F)c4)C(Cc4ccccc4)C3)CC2)nc2cccnc21 (racemic)", "property_measured": "LAD conjunctiva", "reported_measurement": "10.0 mg/kg"}
{"molecule": "O=C(C(c1ccccc1)N1CCN(C2CCN(C(=O)c3cc(C(F)(F)F)cc(C(F)(F)F)c3)C(Cc3ccccc3)C2)CC1)N1CCCC1 (mixture of isomers) [Compound 46]", "property_measured": "LAD conjunctiva", "reported_measurement": "0.63 mg/kg"}
{"molecule": "Cc1cc(C)cc(C(=O)N2CCC(N3CCN(CC=Cc4ccccc4)CC3)CC2Cc2ccccc2)c1 (centres unmarked)", "property_measured": "LAD conjunctiva", "reported_measurement": "10.0 mg/kg"}
{"molecule": "Cc1cccc(C)c1NC(=O)CN1CCN(C2CCN(C(=O)c3cc(C(F)(F)F)cc(C(F)(F)F)c3)C(Cc3ccccc3)C2)CC1 (single isomer, unassigned) [Compound 42]", "property_measured": "LAD conjunctiva", "reported_measurement": "2.50 mg/kg"}
{"molecule": "O=C(CN1CCN(C2CCN(C(=O)c3cc(C(F)(F)F)cc(C(F)(F)F)c3)C(Cc3ccccc3)C2)CC1)N1CCc2ccccc21 (racemic)", "property_measured": "LAD conjunctiva", "reported_measurement": "2.50 mg/kg"}
{"molecule": "Cc1cccc(C)c1NC(=O)CN1CCN(C2CCN(C(=O)c3cc(C(F)(F)F)cc(C(F)(F)F)c3)C(Cc3ccc(F)c(F)c3)C2)CC1 (racemic) [Compound 135]", "property_measured": "LAD conjunctiva", "reported_measurement": "0.63 mg/kg"}
{"molecule": "Cc1ncc(Cn2c(N3CCN(C4CCN(C(=O)c5cc(C(F)(F)F)cc(C(F)(F)F)c5)C(Cc5ccccc5)C4)CC3)nc3ccccc32)o1 (racemic) [Compound 85]", "property_measured": "LAD conjunctiva", "reported_measurement": "2.50 mg/kg"}
{"molecule": "O=C(c1cc(C(F)(F)F)cc(C(F)(F)F)c1)N1CCC(N2CCN(CCn3c(=O)[nH]c4ccccc43)CC2)CC1Cc1ccccc1 (centres unmarked)", "property_measured": "LAD conjunctiva", "reported_measurement": "2.50 mg/kg"}
{"molecule": "COc1ccccc1N1CCN(C2CCN(C(=O)c3cc(C(F)(F)F)cc(C(F)(F)F)c3)C(Cc3ccccc3)C2)CC1 (racemic)", "property_measured": "LAD conjunctiva", "reported_measurement": "10.0 mg/kg"}
{"molecule": "O=C(O)C=CC(=O)O.O=C(O)C=CC(=O)O.O=C(c1cc(C(F)(F)F)cc(C(F)(F)F)c1)N1CCC(N2CCN(CCc3ccccc3)CC2)CC1Cc1ccccc1 (racemic)", "property_measured": "LAD conjunctiva", "reported_measurement": "10.0 mg/kg"}
{"molecule": "CC(=O)NCC(c1ccccc1)N1CCN(C2CCN(C(=O)c3cc(C(F)(F)F)cc(C(F)(F)F)c3)C(Cc3ccccc3)C2)CC1 (racemic) [Compound 82]", "property_measured": "LAD conjunctiva", "reported_measurement": "2.50 mg/kg"}
{"molecule": "O=C(c1ccco1)N1CCN(C2CCN(C(=O)c3cc(C(F)(F)F)cc(C(F)(F)F)c3)C(Cc3ccccc3)C2)CC1 (centres unmarked)", "property_measured": "LAD conjunctiva", "reported_measurement": "10.0 mg/kg"}
{"molecule": "O=C(c1cc(C(F)(F)F)cc(C(F)(F)F)c1)N1CC[C@H](N2CCN(Cc3ccccc3)CC2)C[C@@H]1Cc1ccccc1 (racemic)", "property_measured": "LAD conjunctiva", "reported_measurement": "40.0 mg/kg"}
{"molecule": "Cc1ncc(Cn2c(N3CCN(C4CCN(C(=O)c5cc(C(F)(F)F)cc(C(F)(F)F)c5)C(Cc5ccccc5)C4)CC3)nc3ccccc32)o1 (centres unmarked) [Compound 24]", "property_measured": "LAD conjunctiva", "reported_measurement": "10.0 mg/kg"}
{"molecule": "Cc1cccc(C)c1NC(=O)CN1CCN([C@@H]2CCN(C(=O)c3cc(C(F)(F)F)cc(C(F)(F)F)c3)[C@@H](Cc3ccccc3)C2)CC1.O=C(O)/C=C/C(=O)O (relative stereo)", "property_measured": "LAD conjunctiva", "reported_measurement": "0.63 mg/kg"}
{"molecule": "CC(=O)NCC(c1ccccc1)N1CCN(C2CCN(C(=O)c3cc(C(F)(F)F)cc(C(F)(F)F)c3)C(Cc3ccccc3)C2)CC1 (racemic) [Compound 83]", "property_measured": "LAD conjunctiva", "reported_measurement": "2.50 mg/kg"}
{"molecule": "O=C(c1cc(C(F)(F)F)cc(C(F)(F)F)c1)N1CCC(N2CCN(c3nc4ccccc4[nH]3)CC2)CC1Cc1ccccc1 (racemic)", "property_measured": "LAD conjunctiva", "reported_measurement": "10.0 mg/kg"}
{"molecule": "O=C(CN1CCN(C2CCN(C(=O)c3cc(C(F)(F)F)cc(C(F)(F)F)c3)C(Cc3ccccc3)C2)CC1)NC(c1ccccc1)c1ccccc1 (centres unmarked)", "property_measured": "LAD conjunctiva", "reported_measurement": "2.50 mg/kg"}
